Where these numbers come from: ChEMBL document CHEMBL6103550

Biological target: Early growth response protein 1 (Homo sapiens) (UniProt P18146)
Sequence (P18146 whole entry, looked up): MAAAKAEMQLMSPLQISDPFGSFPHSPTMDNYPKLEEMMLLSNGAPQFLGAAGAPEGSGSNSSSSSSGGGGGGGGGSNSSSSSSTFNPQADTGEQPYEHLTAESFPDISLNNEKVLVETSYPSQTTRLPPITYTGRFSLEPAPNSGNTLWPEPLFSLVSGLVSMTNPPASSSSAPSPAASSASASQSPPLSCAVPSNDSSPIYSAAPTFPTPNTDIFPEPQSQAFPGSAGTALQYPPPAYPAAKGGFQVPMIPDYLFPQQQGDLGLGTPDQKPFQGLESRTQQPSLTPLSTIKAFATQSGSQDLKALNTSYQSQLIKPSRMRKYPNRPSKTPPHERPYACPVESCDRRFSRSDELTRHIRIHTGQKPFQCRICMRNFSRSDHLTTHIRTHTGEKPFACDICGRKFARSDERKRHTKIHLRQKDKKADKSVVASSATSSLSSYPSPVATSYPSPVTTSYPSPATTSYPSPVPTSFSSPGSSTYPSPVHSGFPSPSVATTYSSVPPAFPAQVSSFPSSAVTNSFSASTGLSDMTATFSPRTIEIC
Assay: Disruption of EGR-1-DNA binding in human HaCaT cell nuclear extract at 50 uM in the presence of biotin-EBS oligonucleotide probe (5'-CAAAAAGGAGGAAGGTGAGGGAA-biotin-3') and poly(dI-dC) by EMSA analysis relative to control
Type: subcellular
measured_property: Activity (%)

Previously resolved entries follow.
> print(dat)
                                   compound  reported.measurement
1  COc1ccc(NC(=S)N2N=C(c3ccc(OC)cc3O)CC2c2ccc(OC)c3ccccc23)cc1 (stereo unspecified)                  74.4
2  COc1cccc(NC(=S)N2N=C(c3ccc4ccccc4c3O)CC2c2ccc(OC)c(OC)c2OC)c1 (stereo unspecified)                    38
3  COc1ccc(C2=NN(C(=S)Nc3ccccc3OC)C(c3ccc(OC)c4ccccc34)C2)c(O)c1 (stereo unspecified)                  57.3
4  COc1ccc(NC(=S)N2N=C(c3ccc4ccccc4c3O)CC2c2cc(OC)c(OC)cc2OC)cc1 (stereo unspecified)                    69
5  COc1ccccc1NC(=S)N1N=C(c2ccc3ccccc3c2O)CC1c1ccc(OC)c(OC)c1OC (stereo unspecified)                  46.5
6  COc1cccc(NC(=S)N2N=C(c3ccc4ccccc4c3O)CC2c2cccc(OC)c2)c1 (stereo unspecified)                  16.5
7  COc1cc(OC)c(C2CC(c3ccc4ccccc4c3O)=NN2C(=S)Nc2ccccc2)cc1OC (stereo unspecified)                  81.8
8  COc1ccc(NC(=S)N2N=C(c3ccc4ccccc4c3O)CC2c2ccc(OC)cc2OC)cc1 (stereo unspecified)                  44.5

P: COc1ccccc1NC(=S)N1N=C(c2c(O)ccc3ccccc23)CC1c1ccccc1OC (stereo unspecified)
Q: COc1cc(OC)cc(C2CC(c3ccc4ccccc4c3O)=NN2C(=S)Nc2ccccc2OC)c1 (stereo unspecified)
INPUT: // compare: P vs Q , metric Activity, want the smaller Reply with the label of the item you choose.
OUTPUT: P
(P: 22.9%, Q: 40.8%)
